Consider the following molecules; for each one, report its pIC50.
# System: IL-17A
# test.method.notes: TH17 cytokine inhibition as measured by ELISA: IL-17A
# Type: cell-based
# condition.summary: 120 h; human TH17 cells, 5 days differentiation, ELISA of supernatant
pIC50: −log10 of the molar value.

- CC(=O)Nc1ccc2c(c1)CCN2Cc1ccc(C(=O)N(C)C)cc1: < 5.00
- CC(=O)Nc1ccc2c(c1)CCN2Cc1ccc(C2(O)CCC2)cc1: < 5.00
- CC(=O)Nc1ccc2c(c1)CCN2Cc1ccc(C(=O)N(C)c2ccccc2)cc1: > 5.00

For every listed record, write down its pIC50.
1. CC(=O)Nc1ccc2c(c1)CCN2Cc1ccc(C(=O)Nc2ccccc2)cc1
2. CC(=O)Nc1ccc2c(c1)CCN2Cc1ccc(-c2cc(C)n[nH]2)cc1
3. CS(=O)(=O)Nc1ccc2c(c1)CCCN2Cc1ccc(C(O)(C(F)(F)F)C(F)(F)F)cc1
4. CC(=O)Nc1ccc2c(c1)CCN2Cc1ccc(C(N)=O)cc1
5. CC(=O)Nc1ccc2c(c1)CCCN2Cc1ccc(C(O)(C(F)(F)F)C(F)(F)F)cc1

result:
> 5.00
> 5.00
> 5.00
< 5.00
> 5.00

For every listed record, write down its pIC50.
1. CC(=O)Nc1ccc2c(c1)CCN2Cc1ccc(C(F)(F)F)cc1
2. CC(=O)Nc1ccc2c(c1)CCC(=O)N2Cc1ccc(C(O)(C(F)(F)F)C(F)(F)F)cc1
3. CC(=O)Nc1ccc2c(ccn2Cc2ccc(C(O)(C(F)(F)F)C(F)(F)F)cc2)c1
4. CNC(=O)c1ccc(CN2CCc3cc(NC(C)=O)ccc32)cc1
5. CC(=O)Nc1ccc2c(c1)CCN2Cc1ccc(C(C)C)cc1

result:
1. > 5.00
2. > 5.00
3. > 5.00
4. < 5.00
5. > 5.00

For every listed record, write down its pIC50.
1. CC(=O)Nc1ccc2c(c1)CCN2Cc1ccc(C(O)(C(F)(F)F)C(F)(F)F)cc1
2. CS(=O)(=O)Nc1ccc2c(c1)CCC(=O)N2Cc1ccc(C(O)(C(F)(F)F)C(F)(F)F)cc1

result:
1. > 5.00
2. > 5.00
